Value source: paper PMC3936712

Target: jRdRp (NS5 RdRp module, wt) (Japanese encephalitis virus strain …, UniProt O90417 2799-3432)
Assay: fluorescence anisotropy
PROPERTY: Kd (nM)

>  <BINDER>
AUAAACUUCU (ssRNA) [10mer ssRNA (FR10)]

>  <PROPERTY>
Kd

>  <QUANTITATIVE READOUT>
40.4

$$$$
